The entries below come with measured IC50 values attached.
# STUDY_TARGET: KRAS WT (Homo sapiens, UniProt P01116+P62937)
# Sequence (P01116 1-169 isoform P01116-2 limits assumed): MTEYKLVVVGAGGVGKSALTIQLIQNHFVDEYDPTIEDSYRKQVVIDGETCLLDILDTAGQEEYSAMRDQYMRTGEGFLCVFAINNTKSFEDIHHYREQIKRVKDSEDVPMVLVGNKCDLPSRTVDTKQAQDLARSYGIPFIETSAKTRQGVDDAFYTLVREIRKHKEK
# Sequence (P62937 whole entry): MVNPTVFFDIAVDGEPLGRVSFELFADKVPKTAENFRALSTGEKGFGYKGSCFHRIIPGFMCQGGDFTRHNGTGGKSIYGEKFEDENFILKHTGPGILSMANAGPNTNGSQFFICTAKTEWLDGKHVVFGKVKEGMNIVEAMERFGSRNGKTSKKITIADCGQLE
# ASSAY_REMARKS: Disruption of BRAF RBD interaction with Ras (FRET / MOA assay, with Cyclophilin A)
# Assay type: biochemical
# CONDITION_SUMMARY: KRAS WT; read-out: KRAS WT FRET data IC50

MOLECULE	IC50
C=CC(=O)N1CC[C@H](C(=O)N(C)[C@H](C(=O)N[C@H]2Cc3cc(O)cc(c3)-c3ccc4c(c3)c(c(-c3cnn(C)c3)n4CC)CC(C)(C)COC(=O)[C@@H]3CCCN(N3)C2=O)C(C)C)C1	> 10 µM
CCn1c(-c2cccnc2[C@H](C)OC)c2c3cc(ccc31)-c1csc(n1)C[C@H](NC(=O)[C@H](C(C)C)N(C)C(=O)N1CCC[C@@H](N(C)C)C1)C(=O)N1CCC[C@H](N1)C(=O)OCC(C)(C)C2 (atropisomer, axis not shown)	0.1 to 1 µM
CCn1c(-c2cccnc2[C@H](C)OC)c2c3cc(ccc31)-c1csc(n1)C[C@H](NC(=O)[C@H](C(C)C)N(C)C(=O)N1CC(S(=O)(=O)NC)C1)C(=O)N1CCC[C@H](N1)C(=O)OCC(C)(C)C2 (atropisomer, axis not shown)	0.1 to 1 µM
CCn1c(-c2cccnc2[C@H](C)OC)c2c3cc(ccc31)-c1cccc(c1)C[C@H](NC(=O)[C@H](C(C)C)N(C)C(=O)[C@H]1CCN(C(=O)C(C)(C)N(C)C)C1)C(=O)N1CCC[C@H](N1)C(=O)OCC(C)(C)C2	1 to 10 µM
C=CC(=O)N1CC[C@H](C(=O)N(C)[C@H](C(=O)N[C@H]2Cc3cc(O)cc(c3)-c3ccc4c(c3)c(c(-c3cccnc3)n4CC)CC(C)(C)COC(=O)[C@@H]3CCCN(N3)C2=O)C(C)C)C1	1 to 10 µM
C=CC(=O)N1CC(OC[C@H](C(=O)N[C@H]2Cc3cccc(c3)-c3ccc4c(c3)c(c(-c3cccnc3[C@H](C)OC)n4CC)CC(C)(C)COC(=O)[C@@H]3CCCN(N3)C2=O)C(C)C)C1 (racemic) [Example A484]	> 10 µM
CCn1c(-c2cccnc2[C@H](C)OC)c2c3cc(ccc31)-c1csc(n1)C[C@H](NC(=O)[C@H](C(C)C)N(C)C(=O)N1CC3(CC(N(C)C)C3)C1)C(=O)N1CCC[C@H](N1)C(=O)OCC(C)(C)C2 (atropisomer, axis not shown)	0.1 to 1 µM
CCn1c(-c2cccnc2[C@H](C)OC)c2c3cc(ccc31)-c1csc(n1)C[C@H](NC(=O)[C@H](C(C)C)N(C)C(=O)N1CC3(C1)CS(=O)(=O)CCN3C)C(=O)N1CCC[C@H](N1)C(=O)OCC(C)(C)C2	1 to 10 µM
CCn1c(-c2cccnc2[C@H](C)OC)c2c3cc(ccc31)-c1csc(n1)[C@@H](O)[C@H](NC(=O)[C@H](C(C)C)N(C)C(=O)N1CC(N(C)C)C1)C(=O)N1CCC[C@H](N1)C(=O)OCC(C)(C)C2 (atropisomer, axis not shown)	0.1 to 1 µM
CCn1c(-c2cc(N3CCN(C)CC3)cnc2[C@H](C)OC)c2c3cc(ccc31)-c1csc(n1)C[C@H](NC(=O)[C@H](C(C)C)N(C)C(=O)N1CCC13CCN(C)CC3)C(=O)N1CCC[C@H](N1)C(=O)OCC(C)(C)C2 (atropisomer, axis not shown)	0.01 to 0.1 µM
CCn1c(-c2cccnc2[C@H](C)OC)c2c3cc(ccc31)-c1csc(n1)C[C@H](NC(=O)[C@H](C(C)C)N(C)C(=O)N1C3CC1CS(=O)(=O)C3)C(=O)N1CCC[C@H](N1)C(=O)OCC(C)(C)C2	0.1 to 1 µM
C=CC(=O)N1CCOC2(CCN(C(=O)N(C)[C@H](C(=O)N[C@H]3Cc4nc(n(C)n4)-c4ccc5c(c4)c(c(-c4cccnc4[C@H](C)OC)n5CC(F)(F)F)CC(C)(C)COC(=O)C4CCCN(N4)C3=O)C(C)C)CC2)C1 (stereo partly shown)	0.1 to 1 µM
CCn1c(-c2cccnc2[C@H](C)OC)c2c3cc(ccc31)-c1csc(n1)C[C@H](NC(=O)[C@H](C(C)C)N(C)C(=O)N1CC(N(C)C(=O)C#CC(C)(C)N3CCC3)C1)C(=O)N1CCC[C@H](N1)C(=O)OCC(C)(C)C2	0.1 to 1 µM
C=CC(=O)N1CC[C@H](C(=O)N(C)[C@H](C(=O)N[C@H]2Cc3cc(O)cc(c3)-c3ccc4c(c3)c(c(-c3cc(F)cnc3COC)n4CC)CC(C)(C)COC(=O)[C@@H]3CCCN(N3)C2=O)C(C)C)C1	0.1 to 1 µM
C=CC(=O)N1CC[C@H](C(=O)N(C)[C@H](C(=O)N[C@H]2Cc3cc(O)cc(c3)-c3ccc4c(c3)c(c(-c3cnccc3COC)n4CC)CC(C)(C)COC(=O)[C@@H]3CCCN(N3)C2=O)C(C)C)C1	0.1 to 1 µM
C=CS(=O)(=O)N1CC[C@H](C(=O)N(C)[C@H](C(=O)N[C@H]2Cc3cccc(c3)-c3ccc4c(c3)c(c(-c3cncnc3)n4CC)CC(C)(C)COC(=O)[C@@H]3CCCN(N3)C2=O)C(C)C)C1	> 10 µM
